Reference source: PubChem BioAssay (NCI)

System: NCI/ADR-RES ovarian
assay info: NCI-60 one-dose screen, 48 h
reported conditions: 10 µM unless noted
Method: Growth inhibition of the NCI/ADR-RES human […] tumor cell line is measured as a screen for anti-cancer activity. Cells are grown in 96 well plates and exposed to the test compound for 48 hours. Compounds are tested at a single concentration, which is 10^-5 M for most compounds. The reported endpoint is percent growth (GI% or GIPRCNT), where numbers from 0 - 100% represent growth inhibition, and numbers from -100% - 0 represent cell death. For example, a value of 40 represents 60% growth inhibition. […]
Compounds without any hit were thinned out: in the full panel of roughly 83,000, 20% have a hit. Activity calls are given as the source filed them. The calls were made as follows: active = growth percent below 10; inactive = the rest.
Your answer must be one of the following: y = active, n = inactive

Challenge: Look up the recorded call for `COc1ccc2[nH]c(O)c(N=Nc3nc(-c4ccc(Br)cc4)cs3)c2c1` in this test.
Response given: y

Challenge: # fetch the recorded call for `c1n[nH]cc1-c1nc2ccc3[nH]ncc3c2c2c1CC1(CC2)COC1` here
Response given: n

Challenge: Recorded test call requested for `Cc1nn(-c2ccccc2)c2nc(C)n(C(=O)N/N=C/c3cccc([N+](=O)[O-])c3)c(=O)c12`
Response given: n

Challenge: Assay outcome for ClC(Cn1ncc2c(Nc3cccc(Br)c3)nc(SCCN3CCOCC3)nc21)c1ccc(Br)cc1 (stereo not drawn) : what was it?
Response given: y

Challenge: Called result for `CCCSc1nnc(-c2sc3nc4ccccc4n3c2C)o1`
Response given: n

Challenge: Hi team, can someone confirm the assay call for `COc1ccccc1NC(=O)c1ccc(NC(=O)CCl)s1` ?
Response given: y

Challenge: // return assay outcome for `COc1ccc2[nH]c(O)c(N=Nc3nc(-c4ccc(Cl)cc4)cs3)c2c1`
Response given: y

Challenge: Name the outcome recorded for `Cc1cn(-c2cc(NC(=O)c3ccc(C)c(-n4cc(-c5cnc6cccnn56)nn4)c3)cc(C(F)(F)F)c2)cn1` in the assay.
Response given: n

Challenge: Record request — test call for `O=C(Nc1nc2ccc([N+](=O)[O-])cc2s1)Nc1ccc(Cl)cc1Cl`
Response given: n

Challenge: Look up the recorded call for `COC(=O)c1cc(C(=O)C(F)(F)F)n2c3ccccc3c3ccccc3c12` in this test.
Response given: n

Challenge: Returns: the outcome recorded for `COc1ccc2[nH]c(O)c(N=Nc3nc(-c4ccccc4)cs3)c2c1` in this assay.
Response given: y

Challenge: Tell me the recorded outcome of this test for `Cc1ccc2nc(SCc3ccccc3F)n(-c3ccccc3)c(=O)c2c1` .
Response given: n

Challenge: Hey, what did the test say about `Cc1nn(-c2ccccc2)c2nc(C)n(C(=O)N/N=C/c3ccccc3)c(=O)c12` ?
Response given: n

Challenge: Write down the call the test reported for this compound. Item: `NNc1ncnc2sc3c(c12)CCN(Cc1ccccc1)C3`
Response given: n

Challenge: Write down the call the test reported for this compound. Item: `O=C(CSc1nc2sc3c(c2c(=O)n1-c1ccc(Cl)cc1)CCCC3)N/N=C/C=C/c1ccccc1`
Response given: y

Challenge: I'd appreciate the recorded outcome for `O=C1/C(=C/c2cccc3c2OCO3)Cc2c(F)cc(Br)cc21` from this test.
Response given: n

Challenge: Lab log entry: COc1cc(CNC(=O)[C@]23CCC(C)(C)CC2C2=CCC4[C@@]5(C)CCC(OC(C)=O)C(C)(C)C5CC[C@@]4(C)[C@]2(C)CC3)ccc1OCc1cn(-c2ccc(Cl)cc2Cl)nn1 (stereo partly drawn) — outcome as called in the assay?
Response given: n

Challenge: For `CC1=C(C)C(=O)C(N2CCSCC2)=CC1=O` , what call appears in the results of this test?
Response given: n

Challenge: Status in this test for CN(C)CCOc1ccc(C(=O)C2[C@H](c3ccc(Cl)cc3)[C@@H](c3ccccc3)NC23C(=O)Nc2ccc(Cl)cc23)cc1 (stereo partly drawn) ?
Response given: y

Challenge: Called result for `O=C(/C=C1\C(=O)N(Cc2ccccc2)c2ccccc21)c1cc2ccccc2oc1=O`
Response given: n

Challenge: Assay outcome for `O=C(Cn1c(/C=C/c2ccc([N+](=O)[O-])cc2)nc2ccccc2c1=O)Nc1ccccc1` : what was it?
Response given: n

Challenge: Record lookup: outcome of this test for COc1ccc(C2=NN(C(=O)[C@H]3[C@@H](c4ccco4)c4sc(=O)[nH]c4S[C@@H]3C)C(c3ccc4ccccc4c3)C2)cc1 (stereo partly drawn) ?
Response given: n

Challenge: Fill in: this test's call for `COc1ccc2[nH]c(=O)c(CSc3ccccc3Nc3nccc(-c4ccc(C(F)(F)F)cc4)n3)cc2c1` is ___
Response given: n

Challenge: Give the logged outcome of this assay for the following compound: `O=C(NNC(=S)NC(=O)c1ccccc1)c1ccc(OCc2nc3ccc(Cl)cc3[nH]2)cc1`
Response given: y

Challenge: Write down the call the test reported for this compound. Item: `COc1ccc(NC2=C(I)C(=O)C(C)=C(C)C2=O)cc1`
Response given: y

Challenge: Status in this test for `COc1ccc(N=Nc2c(N)nn3c(N)c(C#N)c(-c4ccccc4)nc23)cc1` ?
Response given: y

Challenge: GET /call?item= `C=CC(=O)Nc1ccc(C(=O)/C=C/c2ccc(N(C)C)cc2)c(O)c1` returns the recorded outcome of this test.
Response given: n

Challenge: How did this test come out for `Cc1cccc(-c2ccccc2Oc2ccc3nnc(Cl)n3n2)c1` ?
Response given: n

Challenge: What call does the record list for O=C(c1ccc(Cl)cc1)C1[C@H](c2ccccc2Cl)[C@@H](c2ccccc2)NC12C(=O)Nc1ccc(Br)cc12 (stereo partly drawn) ?
Response given: y

Challenge: Tell me the recorded outcome of this test for `N#Cc1ccc(C(=O)CSc2nc3c(c(Nc4ccc(S(N)(=O)=O)cc4)n2)CCC3)cc1` .
Response given: n

Challenge: Given `O=C(CSc1nc2ccccc2c(=O)[nH]1)NNC(=O)c1ccccc1Cl` , state the outcome it received in this test.
Response given: n

Challenge: Identify the outcome logged in this assay for the compound shown: `Nc1nn2c(-c3cc4cc(Br)ccc4oc3=O)ccnc2c1N=Nc1ccc(Br)cc1`
Response given: n

Challenge: Tell me the recorded outcome of this test for `CN(CCSSCCN1CCOCC1)C(=O)Oc1cc2c(c3ccccc13)[C@H](CCl)CN2C(=O)c1cc2cc(OCCCN3CCC3)ccc2[nH]1` .
Response given: y

Challenge: Per the assay record, what outcome was assigned to `COc1ccc(N=Nc2c(N)nn3c(-c4ccc([N+](=O)[O-])cc4)ccnc23)cc1` ?
Response given: n

Challenge: Dear colleague, could you share the recorded outcome for N#CC1=C(c2cccs2)Nc2c(c(-c3ccccc3)nn2-c2ccccc2)C12C(=O)Nc1ccccc12 (stereo not drawn) when you have a moment?
Response given: n

Challenge: Record request — test call for `O=C(N=Nc1c(O)[nH]c2ccc(Cl)cc12)c1ccc2nc(-c3ccc(Cl)cc3)[nH]c2c1`
Response given: n

Challenge: Name the outcome recorded for CC(Nc1ncnc2ccc(-c3ccc4oc(N)nc4c3)cc12)c1ccccc1 (stereo not drawn) in the assay.
Response given: y

Challenge: Recorded test call requested for Fc1ccccc1CNc1nc(SCCN2CCOCC2)nc2c1cnn2CC(Cl)c1ccc(Br)cc1 (stereo not drawn)
Response given: n
